tested on: Fibroblast; assay: Multiplex assay against human fibroblast; assay type: toxicity, cell-based; details: 24 h, 1 µM, compound concentration 1 uM, replicate 1
As shown below, each of these molecules has a reported Population Pyknosed Nuclei (%) value.
Report the value in % with no unit label.

// below: answered molecules
- Molecule: "N#Cc1cnc(Nc2cc(NC[C@H]3CNCCO3)c(C(F)(F)F)cn2)cn1"
  Measured result: 11
- Molecule: "COc1cc2c(NC3CCN(C(C)C)CC3)nc(N3CCC(F)(F)CC3)nc2cc1OCCCN1CCCC1"
  Measured result: 17
- Molecule: "CC(C)(C)c1cnc(CSc2cnc(NC(=O)C3CCNCC3)s2)o1"
  Measured result: 21
- Molecule: "Cl.Cl.NC1(c2ccc(-c3nc4ccn5c(=O)[nH]nc5c4cc3-c3ccccc3)cc2)CCC1"
  Measured result: 15
- Molecule: "COc1cc2c(Nc3ccc(NC(=O)c4ccccc4)cc3)ncnc2cc1OCCCN1CCOCC1"
  Measured result: 26

In the following, a different molecule is considered.
Ask: Name the reported Population Pyknosed Nuclei (%) value associated with the molecule Cc1cc2c(cc1N1C(=O)c3cccc4c(CCCO)ccc(c34)C1=O)n(C)c(=O)n2C
Result: 24

###

test system: HEK-293T; test: Multiplex assay against HEK293T; format: toxicity, cell-based; conditions: human, 48 h, 1 µM, compound concentration 1 uM, replicate 2
Result type: Population Fragmented Nuclei (%)
Report the value in % with no unit label.

// below: answered compounds
- Compound: "COc1cc2c(NC3CCN(C(C)C)CC3)nc(N3CCC(F)(F)CC3)nc2cc1OCCCN1CCCC1"
  Measured result: 8
- Compound: "Cc1nc(Cc2cccc(C(F)(F)F)c2)sc1-c1ccc(C(N)=O)nc1 [TP-024n]"
  Measured result: 5
- Compound: "O=C(O)c1ccc2cc(-c3ccc(O)c(C45CC6CC(CC(C6)C4)C5)c3)ccc2c1 [O-DEMETHYLATED ADAPALENE]"
  Measured result: 9
- Compound: "CNc1oc(-c2cccc3ccccc23)nc1C#N"
  Measured result: 8
- Compound: "Nc1nc2c(c(N3CCNCC3)n1)CCC1=C2[C@@H]2CCCC[C@@H]2O1"
  Measured result: 8

Ask: Name the reported Population Fragmented Nuclei (%) value associated with the compound CC(C)N1CCC(C)(C)c2cc(C#Cc3ccc(C(=O)O)cc3)ccc21
Result: 9

Ask: Name the reported Population Fragmented Nuclei (%) value associated with the compound Cl.Cl.Nc1ncnc2c1c(-c1cccc(OCc3ccccc3)c1)cn2[C@H]1C[C@@H](CN2CCC2)C1
Result: 6

Ask: Name the reported Population Fragmented Nuclei (%) value associated with the compound CCn1c(-c2nonc2N)nc2cnc(Oc3cccc(NC(=O)c4ccc(OCCN5CCOCC5)cc4)c3)cc21 [GSK-269962A]
Result: 20

Ask: Name the reported Population Fragmented Nuclei (%) value associated with the compound COc1ccc(NS(=O)(=O)c2sc3ccc(Cl)cc3c2C)cc1N1CCNCC1.Cl
Result: 4

###

system: HEK-293T; assay: Incucyte cell viability with HEK293T; format: toxicity, cell-based; details: human, 0 h, 10 µM, compound concentration 10 uM, replicate number 2, timepoint 0 hours; also: filed as whole numbers so only -1 and 0 and 1 occur
As shown below, each of these compounds has a reported Growth Rate value.

// below: answered compounds
- Compound: "Nc1nc(NCCc2ccc(O)cc2)nc2nc(-c3ccco3)nn12"
  Growth Rate: 0
- Compound: "CC(=O)N1CCC(c2ccc(C(=O)NC3=NCCN3)cc2C(F)(F)F)CC1"
  Growth Rate: 0

Ask: Look up Growth Rate with HEK-293T for this compound: CN(C)CCCn1cc(C2=C(c3c[nH]c4ccccc34)C(=O)NC2=O)c2ccccc21
Result: 1

Ask: Look up Growth Rate with HEK-293T for this compound: CCC(=O)O[C@]1(C(=O)SCF)[C@H](C)C[C@H]2[C@@H]3C[C@H](F)C4=CC(=O)C=C[C@]4(C)[C@@]3(F)[C@@H](O)C[C@@]21C [FLUTICASONE PROPIONATE]
Result: 0

Ask: Look up Growth Rate with HEK-293T for this compound: C[C@H](c1ccnc(Nc2nc3ccc(-c4cc(N(C)C)ncn4)cc3[nH]2)c1)N1CCN(C(=O)CC(F)(F)F)CC1
Result: 1

Ask: Look up Growth Rate with HEK-293T for this compound: CN(CCOc1ccc(C[C@H](Nc2ccccc2C(=O)c2ccccc2)C(=O)O)cc1)c1ccccn1.O
Result: 0

Ask: Look up Growth Rate with HEK-293T for this compound: CNc1nc(-c2ccc3c(N)n[nH]c3c2)cc(N2C[C@@H](C(=O)NC3CCCCC3)CC[C@H]2C)n1
Result: 1

Ask: Look up Growth Rate with HEK-293T for this compound: CCC1(C2=NCCN2)Cc2ccccc2O1 (stereo not drawn)
Result: 0

###

test system: HEK-293T; assay: Multiplex assay against HEK293T; format: toxicity, cell-based; details: human, 24 h, 10 µM, compound concentration 10 uM, replicate 2
Class field: derived from Population Hoechst High Intensity Objects (%); ranges low interval = under 7%, middle interval = from 7% up to 10%, high interval = 10% and over

For orientation, consider the following solved cases.
- Compound: "CCC(=O)O[C@]1(C(=O)SCF)[C@H](C)C[C@H]2[C@@H]3C[C@H](F)C4=CC(=O)C=C[C@]4(C)[C@@]3(F)[C@@H](O)C[C@@]21C [FLUTICASONE PROPIONATE]"
  Class assignment: "low interval"
- Compound: "Cl.Cl.NC1(c2ccc(-c3nc4ccn5c(=O)[nH]nc5c4cc3-c3ccccc3)cc2)CCC1"
  Class assignment: "high interval"
- Compound: "CN(C)CCOc1ccc(-c2nc(-c3ccncc3)c(-c3ccc4c(c3)CC/C4=N\\O)[nH]2)cc1 [SB590885]"
  Class assignment: "low interval"

Ask: Lab note: sort CN(C)C/C=C/C(=O)Nc1cc2c(Nc3ccc(F)c(Cl)c3)ncnc2cc1O[C@H]1CCOC1.O=C(O)/C=C\C(=O)O.O=C(O)/C=C\C(=O)O [AFATINIB DIMALEATE] into the matching Population Hoechst High Intensity Objects (%) band.
Result: middle interval

Ask: Lab note: sort Cl.Cl.Nc1ncnc2c1c(-c1cccc(OCc3ccccc3)c1)cn2[C@H]1C[C@@H](CN2CCC2)C1 into the matching Population Hoechst High Intensity Objects (%) band.
Result: high interval

###

system: U2OS; test: Multiplex assay against U2OS; type: toxicity, cell-based; conditions: human, 24 h, 10 µM, compound concentration 10 uM, replicate 1
As shown below, each of these molecules has a reported Population Apoptotic (%) value.
Report the value in % with no unit label.

// below: answered molecules
- Molecule: "N#Cc1cnc(Nc2cc(NC[C@H]3CNCCO3)c(C(F)(F)F)cn2)cn1 [SRA-737]"
  Unit symbol: "%"
  Population Apoptotic (%): 18
- Molecule: "COc1ccc(NS(=O)(=O)c2sc3ccc(Cl)cc3c2C)cc1N1CCNCC1.Cl"
  Unit symbol: "%"
  Population Apoptotic (%): 61
- Molecule: "Nc1ccc(C(=O)Nc2cccc(-c3nc(N4CCOCC4)c4oc5ncccc5c4n3)c2)cn1"
  Unit symbol: "%"
  Population Apoptotic (%): 80

Ask: Name the reported Population Apoptotic (%) value associated with the molecule Cl.Cl.Nc1ncnc2c1c(-c1cccc(OCc3ccccc3)c1)cn2[C@H]1C[C@@H](CN2CCC2)C1
Result: 90

Ask: Name the reported Population Apoptotic (%) value associated with the molecule CCOc1cc2ncc(C#N)c(Nc3ccc(OCc4cccc(F)c4)c(Cl)c3)c2cc1NC(=O)/C=C/CN(C)C [HKI-357]
Result: 84

Ask: Name the reported Population Apoptotic (%) value associated with the molecule Cc1cn(-c2cc(NC(=O)c3ccc4c(c3)CN(c3cncnc3)C[C@@H]4C)cc(C(F)(F)F)c2)cn1
Result: 42

Ask: Name the reported Population Apoptotic (%) value associated with the molecule CN(C)CCOc1ccc(-c2nc(-c3ccncc3)c(-c3ccc4c(c3)CC/C4=N\O)[nH]2)cc1 [SB590885]
Result: 44

Ask: Name the reported Population Apoptotic (%) value associated with the molecule COc1cc2c(Nc3ccc(NC(=O)c4ccccc4)cc3)ncnc2cc1OCCCN1CCOCC1
Result: 18

Ask: Name the reported Population Apoptotic (%) value associated with the molecule Cl.Cl.NC1(c2ccc(-c3nc4ccn5c(=O)[nH]nc5c4cc3-c3ccccc3)cc2)CCC1
Result: 36

Ask: Name the reported Population Apoptotic (%) value associated with the molecule O=C(O)c1ccc2cc(-c3ccc(O)c(C45CC6CC(CC(C6)C4)C5)c3)ccc2c1 [O-DEMETHYLATED ADAPALENE]
Result: 64

Ask: Name the reported Population Apoptotic (%) value associated with the molecule Cc1nc(Cc2cccc(C(F)(F)F)c2)sc1-c1ccc(C(N)=O)nc1 [TP-024n]
Result: 42

Ask: Name the reported Population Apoptotic (%) value associated with the molecule CC(=O)c1cc(-c2cc(C(=O)NC3CC3)ccc2C)c2ncccn12
Result: 25

Ask: Name the reported Population Apoptotic (%) value associated with the molecule Cc1cc2c(cc1N1C(=O)c3cccc4c(CCCO)ccc(c34)C1=O)n(C)c(=O)n2C
Result: 59

Ask: Name the reported Population Apoptotic (%) value associated with the molecule CC(C)(C)c1cnc(CSc2cnc(NC(=O)C3CCNCC3)s2)o1 [BMS-387032]
Result: 64

Ask: Name the reported Population Apoptotic (%) value associated with the molecule CNC(=O)c1cc(Oc2ccc(NC(=O)Nc3cc(C(C)(C)C)nn3-c3ccc4ncccc4c3)c(F)c2)ccn1 [REBASTINIB]
Result: 75
